- Tested on: GB4
- test_summary: qHTS profiling for inhibitors of Plasmodium falciparum proliferation (AID 504749); further: nearly all actives have a fitted effect of over 60% in size
- test_conditions: P. falciparum in erythrocytes, SYBR Green DNA, 72 h; series mostly up to 28.7 µM
Results filed as inconclusive are left out. Calls of active or inactive are those of the source. The call rests on the fitted dose curve; in most records, active means well fitted inhibition curve with a large enough effect; inconclusive means small, poorly fitted or top-dose-only effect; inactive means flat fitted curve, though single readings scatter.
Mark one answer only. Choices: active, inactive

Below are worked cases with known answers.
compound: Cc1ccc(O)c([C@H](CCN(C(C)C)C(C)C)c2ccccc2)c1
label: active

compound: COc1ccc(CCN(C)CCCN2CCc3cc(OC)c(OC)cc3CC2=O)cc1OC
label: inactive

compound: CN(C)CCN1C(=O)c2ccccc2N(C)c2ccccc21
label: active

Inquiry: Could you please tell me the result logged for `CN(Cc1ccc(C(C)(C)C)cc1)Cc1cccc2ccccc12` in this assay?
Reply text: inactive

Inquiry: Could you please tell me the result logged for CC(=O)Nc1ccc(OCC(O)CNC(C)C)cc1 (centres undefined) in this assay?
Reply text: inactive

Inquiry: Could you please tell me the result logged for `C=CCN1CCc2nc(N)sc2CC1` in this assay?
Reply text: inactive

Inquiry: Could you please tell me the result logged for `CCCCCCCCOc1ccc(C(=O)c2ccccc2)c(O)c1` in this assay?
Reply text: inactive

Inquiry: Could you please tell me the result logged for `CC(=O)Nc1ccc(OC(=O)c2ccccc2OC(C)=O)cc1` in this assay?
Reply text: inactive

Inquiry: Could you please tell me the result logged for `CN1CCc2cccc3c2[C@H]1Cc1ccc(O)c(O)c1-3` in this assay?
Reply text: active

Inquiry: Could you please tell me the result logged for `C/C=C/c1ccc(O)c(OC)c1` in this assay?
Reply text: inactive

Inquiry: Could you please tell me the result logged for `COc1ccc(CN(CCN(C)C)c2ncccn2)cc1` in this assay?
Reply text: active

Inquiry: Could you please tell me the result logged for `CC(C)Cn1cnc2c1c(=O)n(C)c(=O)n2C` in this assay?
Reply text: inactive

Inquiry: Could you please tell me the result logged for `CCCN(CCC)S(=O)(=O)c1ccc(C(=O)O)cc1` in this assay?
Reply text: inactive

Inquiry: Could you please tell me the result logged for `CCOC(=O)C(C#N)=C(c1ccccc1)c1ccccc1` in this assay?
Reply text: inactive

Inquiry: Could you please tell me the result logged for `COc1cc(C(=O)N2CCCCCCC2)cc(OC)c1OC` in this assay?
Reply text: inactive
